Target: T1, human CD19 (human, UniProt P15391 20-556)
T1 construct: CD19 as expressed on Raji, NALM-6 and SU-DHL-6 cells; also called CD19 antigen; B-cell surface antigen B4
T1 sequence: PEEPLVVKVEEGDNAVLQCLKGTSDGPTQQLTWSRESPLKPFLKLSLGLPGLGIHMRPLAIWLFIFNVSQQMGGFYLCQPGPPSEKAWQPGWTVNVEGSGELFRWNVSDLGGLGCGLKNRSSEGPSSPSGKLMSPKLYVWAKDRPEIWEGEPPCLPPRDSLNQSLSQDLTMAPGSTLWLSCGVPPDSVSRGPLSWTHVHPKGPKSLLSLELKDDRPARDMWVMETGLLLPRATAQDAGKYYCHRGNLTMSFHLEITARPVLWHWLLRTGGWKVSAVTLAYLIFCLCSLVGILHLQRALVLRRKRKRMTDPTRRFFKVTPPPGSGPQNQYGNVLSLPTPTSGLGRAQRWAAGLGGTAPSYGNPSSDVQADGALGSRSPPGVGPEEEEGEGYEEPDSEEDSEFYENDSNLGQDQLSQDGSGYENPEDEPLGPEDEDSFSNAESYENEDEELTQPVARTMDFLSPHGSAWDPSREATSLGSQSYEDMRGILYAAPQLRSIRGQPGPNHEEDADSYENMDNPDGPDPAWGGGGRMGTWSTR
Test: flow cytometry, Raji cells, MPF vs chimeric FMC63
Protocol: Binding of the CD19 humanized monoclonal antibodies by flow cytometry to Raji tumor cells (human Burkitt lymphoma, DSMZ ACC319), NALM-6 (human B cell precursor leukemia, DSMZ ACC128) and SU-DHL-6 (human B cell lymphoma, DSMZ ACC572) (all cell lines from DSMZ Braunschweig, Deutschland) was assessed. […] The cells were washed and detected by a phycoerythrin-labeled (PE) anti-human secondary antibody (eBioscience, CA, USA) and analyzed by flow cytometry. […]
experimental.endpoint: relative MPF (% of chimeric FMC63)
Form field: result (number plus unit)

>>> value("VH16 R94K VL43 Y32F (antibody, human IgG1, V domains shown, Full-length human IgG1/kappa; substitutions in Kabat numbering) VH: QVQLVQSGGGVVQPGRSLRLSCAASGVSLPDYGVSWVRQAPGKGLEWVAVIWGSETTYYNSALKSRFTISRDNSKNTLYLQMNSLRAEDTAVYYCAKHYYYGGSYAMDYWGQGTLVTVSS VL: DIVMTQTPSSLSASVGDRVTITCRASQDISKFLNWYQQKPGKAPKLLIYHTSRLHSGVPSRFSGSGSGTDFTLTISSLQPEDFATYYCQQGNTLPYTFGPGTKVDIKR")
"39.5%"
>>> value("VH16/VL43 (antibody, human IgG1, V domains shown) VH: QVQLVQSGGGVVQPGRSLRLSCAASGVSLPDYGVSWVRQAPGKGLEWVAVIWGSETTYYNSALKSRFTISRDNSKNTLYLQMNSLRAEDTAVYYCARHYYYGGSYAMDYWGQGTLVTVSS VL: DIVMTQTPSSLSASVGDRVTITCRASQDISKYLNWYQQKPGKAPKLLIYHTSRLHSGVPSRFSGSGSGTDFTLTISSLQPEDFATYYCQQGNTLPYTFGPGTKVDIKR")
"7.42%"

Kindly review the next binder as well.
## Task // relative MPF (% of chimeric FMC63) lookup, key: VH16 Y32F/R94K/VL43 V3Q/T7S/N92A (antibody, human IgG1, name in Kabat numbering, V domains shown, substitutions in Kabat numbering) VH: QVQLVQSGGGVVQPGRSLRLSCAASGVSLPDFGVSWVRQAPGKGLEWVAVIWGSETTYYNSALKSRFTISRDNSKNTLYLQMNSLRAEDTAVYYCAKHYYYGGSYAMDYWGQGTLVTVSS VL: DIQMTQSPSSLSASVGDRVTITCRASQDISKYLNWYQQKPGKAPKLLIYHTSRLHSGVPSRFSGSGSGTDFTLTISSLQPEDFATYYCQQGATLPYTFGPGTKVDIKR
## Result 58.8%
